- ASSAY_REMARKS: physchem
- CONDITION_INFO: pH 5.22, water
ENDPOINT: solubility (µg/mL)
Answers are plain numbers, in µg/mL.

Query (molecule): Cn1cnc([N+](=O)[O-])c1Sc1ncnc2nc[nH]c12 [Azathioprine] ; field requested: solubility
231

----------
- CONDITION_INFO: human
Where a name gives a salt, the structure may show the parent alone.
Kindly state risk for each of the entries shown.
Give bare numbers.

Use these answered entries as a reference point.
# COMPOUND, risk
measured = [
    ("O=S(=O)(O)NC1CCCCC1 [Cyclamate, Sodium cyclohexylsulfamate]", 0),
    ("Cn1cnc([N+](=O)[O-])c1Sc1ncnc2nc[nH]c12", 1),
]

Could you tell me risk for each of these compounds? They are listed below.
1. CN(C)C(=N)N=C(N)N [Metformin, N,N-Dimethyltriimidodicarbonic diamide]
2. O=C1CN(N=Cc2ccc([N+](=O)[O-])o2)C(=O)N1
3. O=P1(N(CCCl)CCCl)NCCCO1 (stereo not drawn) [Cyclophosphamide]
4. CCCCCCC(O)CO (stereo not drawn)
5. Nc1ccc(NCCO)c([N+](=O)[O-])c1
6. NNc1nncc2ccccc12 [Hydralazine hydrochloride]
7. CCOc1cc(CCC(C)=O)ccc1O [Ethylzingerone, 4-(3-Ethoxy-4-hydroxyphenyl)butan-2-one]

1. 1
2. 1
3. 1
4. 0
5. 0
6. 1
7. 0
